Test system: PC-3 prostate
assay.method.text: NCI-60 one-dose screen, 48 h (100 = growth as untreated, 0 = no growth, -100 = all killed)
experimental.setup: 10 µM unless noted
This is part of a sample that, as a whole, favours compounds with a hit. Of some 83,000 tested, about 20% had one in any assay.
reported.metric: growth (%)
Report the value in % with no unit label.

Example entries begin here.
{"compound": "COc1cc(OC)c2sc(-c3ccc(-n4cncc4-c4ccc(OC)c(OC)c4)cc3)nc2c1", "unit.annotation": "%", "growth": 27.6}
{"compound": "Nc1c(C(=O)Nc2ccncc2)sc2nc3c(cc12)CCCCCC3", "unit.annotation": "%", "growth": 90.3}
{"compound": "CS(=O)(=O)Nc1cc(-c2ccc3ncnc(Nc4c(Cl)ccc5c4OCO5)c3c2)cnc1Cl", "unit.annotation": "%", "growth": 2.75}
{"compound": "CC(C)OC(=O)c1ccc2[nH]c(O)c(C(=Nc3ccc(N(C)C(=O)CN4CCN(C)CC4)cc3)c3ccccc3)c2c1", "unit.annotation": "%", "growth": 9.18}
{"compound": "O=C(Cn1c2c(c3ccccc31)CCCC2)Nc1ccc(-c2nc3ccccc3s2)cc1", "unit.annotation": "%", "growth": 94.7}
{"compound": "C=C1C(=O)O[C@H]2[C@H]1CC/C(COC(=O)CSCCSCC(=O)OC/C1=C/CC[C@@]3(C)O[C@H]3[C@H]3OC(=O)C(=C)[C@@H]3CC1)=C\\CC[C@@]1(C)O[C@@H]21", "unit.annotation": "%", "growth": 1.19}

Prompt: Look up growth: `O=C(Nc1ccc(NC(=O)c2cc(=O)[nH]c3ccccc23)cc1)Nc1cccc(C(F)(F)F)c1`
Response: 69.8

Prompt: Look up growth: CC(C)N1CN2C(=S)NC3C2N(C1)C(=S)N3C (stereo unspecified)
Response: 98

Prompt: Look up growth: `O=C(CCC(=O)N/N=C/c1ccccc1O)N/N=C/c1ccccc1O`
Response: 31.1

Prompt: Look up growth: `O=C1c2cccnc2C(=O)c2c1c(C(=O)NCCn1ccnc1)c1ccccn21`
Response: 8.68

Prompt: Look up growth: `Cc1ccc(Cl)cc1Nc1nc(C(F)(F)F)ccc1C(=O)N/N=C/c1cccnc1`
Response: 32.4

Prompt: Look up growth: `COc1ccc(-c2ccc3cnc4sc(-c5ccc(OC)cc5)nc4c3n2)cc1`
Response: 70.3

Prompt: Look up growth: `COC(=O)c1c2c(c(C)[n+]([O-])c1C)C(=O)C(NCc1ccc(Cl)cc1)=CC2=O`
Response: 33.5

Prompt: Look up growth: `Cc1ccc(NC(=S)NNC(=S)NNc2ccccc2)cc1C`
Response: 55.7

Prompt: Look up growth: `Cn1c(O)c(C=NCCN=Cc2c(O)n(C)c(=O)n(C)c2=O)c(=O)n(C)c1=O`
Response: 90.4

Prompt: Look up growth: `COCCn1cc(-c2nc(-c3cc4cccnc4n3CCOC)cs2)c2cc(OC)ccc21`
Response: 29.3

Prompt: Look up growth: `O=C(CSc1nnc2n1S(=O)(=O)c1ccccc1N2c1ccccc1)Nc1nc2ccc(F)cc2s1`
Response: 89.5

Prompt: Look up growth: `Cc1ccc(-c2csc(NC(=O)CN3CCN(c4cc5c(cc4F)c(=O)c(C(=O)O)cn5C4CC4)CC3)n2)cc1`
Response: 6.64

Prompt: Look up growth: CC(O)c1cnc(/C=C2\SC(=S)N(Cc3ccccc3)C2=O)s1 (stereo unspecified)
Response: 34

Prompt: Look up growth: `CC(=O)Nc1nc2ccc(NS(=O)(=O)c3cccc4c(N(C)C)cccc34)cc2[nH]1`
Response: 60.2

Prompt: Look up growth: `O=C(COc1ccc(-c2nc3ccccc3[nH]2)cc1)N=Nc1c(O)[nH]c2ccc(Cl)cc12`
Response: 25.9
